# Test system: Poliovirus 3
# Measurement notes: Antiviral activity against Poliovirus Sabin 3 infected in human HeLa cells assessed as reduction in virus-induced cytopathic effect after 72 hrs by crystal violet staining-based assay
# Type: functional, organism-based
# Condition label: Enterovirus C
Property label: EC50 (nM)

>>> measured("Cc1ccc(C(=O)CCCCSc2ccc(C3=NCCO3)cc2)s1")
330
>>> measured("Cc1ccc(C(=O)CCCCOc2ccc(C3=N[C@H](C)CO3)cc2)s1")
1320
>>> measured("CCOC(=O)c1ccc(OCCC2CCN(c3ccc(C)nn3)CC2)cc1 [PIRODAVIR]")
8
>>> measured("Cc1ccc(C(=O)CCCC#Cc2ccc(C3=NCCO3)cc2)s1")
9160
>>> measured("Cc1ccc(C(=O)CCCCOc2ccc(C3=NCCO3)cc2)s1")
367
>>> measured("Cc1ccc(C(=O)CCCCCc2ccc(C3=NCCO3)cc2)s1")
9070
>>> measured("Cc1ccc(C(=O)CCC/C=C/c2ccc(C3=NCCO3)cc2)s1")
53
>>> measured("N#Cc1ccc(NC(=O)c2cc3n(n2)C(C(F)(F)F)CC(c2cccs2)N3)cc1 (stereo not given)")
218
>>> measured("Cc1ccc(C(=O)CCCCSc2ccc(C3=N[C@H](C)CO3)cc2)s1")
530
>>> measured("C#CC[C@@H](C(=O)N[C@H](/C=C/C(=O)OCC)C[C@@H]1CCNC1=O)n1cccc(NC(=O)c2cc(C)on2)c1=O [IMOCITRELVIR]")
137
>>> measured("COc1ccc(OCc2ccc(COc3c(Cl)cccc3Cl)cc2)c(Cl)c1")
20

====

# Tested on: Poliovirus 1
# Measurement notes: Antiviral activity against Human poliovirus 1 10236 infected in human HeLa cells assessed as reduction in virus-induced cytopathic effect after 72 hrs by crystal violet staining-based assay
# Type: functional, organism-based
# Condition label: Enterovirus C, 10236, HeLa
pEC50: −log10 of the molar value.
Property label: pEC50

>>> measured("Cc1ccc(C(=O)CCCCOc2ccc(C3=NCCO3)cc2)s1")
5.57
>>> measured("Cc1ccc(C(=O)CCCCSc2ccc(C3=NCCO3)cc2)s1")
6.14
>>> measured("Cc1ccc(C(=O)CCC/C=C/c2ccc(C3=NCCO3)cc2)s1")
6.14

====

# Tested on: Poliovirus 2
# Measurement notes: Antiviral activity against Human poliovirus 2 Lansing infected in human HeLa cells assessed as reduction in virus-induced cytopathic effect after 72 hrs by crystal violet staining-based assay
# Assay type: functional, organism-based
# Condition label: Enterovirus C
Known EC50 of a selection of compounds
Property label: EC50 (nM)

>>> measured("Cc1ccc(C(=O)CCCCOc2ccc(C3=NCCO3)cc2)s1")
590
>>> measured("Cc1ccc(C(=O)CCCCSc2ccc(C3=NCCO3)cc2)s1")
2270
>>> measured("Cc1ccc(C(=O)CCC/C=C/c2ccc(C3=NCCO3)cc2)s1")
60

====

# Test system: Poliovirus 1
# Measurement notes: Antiviral activity against Human poliovirus 1 10239 infected in human HeLa cells assessed as reduction in virus-induced cytopathic effect after 72 hrs by crystal violet staining-based assay
# Format: functional, organism-based
# Condition label: Enterovirus C, 10239, HeLa
pEC50: −log10 of the molar value.
# pEC50 annotations
Property label: pEC50

>>> measured("Cc1ccc(C(=O)CCCCOc2ccc(C3=NCCO3)cc2)s1")
6.03
>>> measured("Cc1ccc(C(=O)CCCCSc2ccc(C3=NCCO3)cc2)s1")
5.25
>>> measured("Cc1ccc(C(=O)CCC/C=C/c2ccc(C3=NCCO3)cc2)s1")
6.66

====

# Tested on: Poliovirus 1
# Measurement notes: Antiviral activity against Human poliovirus 1 Brunhilde infected in human HeLa cells assessed as reduction in virus-induced cytopathic effect after 72 hrs by crystal violet staining-based assay
# Format: functional, organism-based
# Condition label: Enterovirus C
# reported EC50; entries follow
Property label: EC50 (nM)

>>> measured("Cc1ccc(C(=O)CCCCSc2ccc(C3=NCCO3)cc2)s1")
470
>>> measured("Cc1ccc(C(=O)CCC/C=C/c2ccc(C3=NCCO3)cc2)s1")
70
>>> measured("Cc1ccc(C(=O)CCCCOc2ccc(C3=NCCO3)cc2)s1")
990

====

In this section, each of the molecules is paired with its reported pEC50.
# Tested on: Poliovirus 2
# Measurement notes: Antiviral activity against Human poliovirus 2 MEF-1 infected in human HeLa cells assessed as reduction in virus-induced cytopathic effect after 72 hrs by crystal violet staining-based assay
# Assay type: functional, organism-based
# Condition label: Enterovirus C, MEF-1, HeLa
pEC50: −log10 of the molar value.
Property label: pEC50

>>> measured("Cc1ccc(C(=O)CCCCSc2ccc(C3=NCCO3)cc2)s1")
5.90
>>> measured("Cc1ccc(C(=O)CCC/C=C/c2ccc(C3=NCCO3)cc2)s1")
7.52

====

This listing pairs compounds with measured EC50.
# Test system: Poliovirus 3
# Measurement notes: Antiviral activity against Human poliovirus 3 Sabin 3 infected in human HeLa cells assessed as reduction in virus-induced cytopathic effect after 72 hrs by crystal violet staining-based assay
# Format: functional, organism-based
# Condition label: Enterovirus C, Sabin 3, HeLa
Property label: EC50 (nM)

>>> measured("Cc1ccc(C(=O)CCCCSc2ccc(C3=NCCO3)cc2)s1")
330
>>> measured("Cc1ccc(C(=O)CCC/C=C/c2ccc(C3=NCCO3)cc2)s1")
50
>>> measured("Cc1ccc(C(=O)CCCCOc2ccc(C3=NCCO3)cc2)s1")
320
